system: Mycobacterium tuberculosis; assay: Antimycobacterial activity against Mycobacterium tuberculosis H37Ra by microplate Alamar Blue assay; format: functional
Structures can show the parent of a compound that is named as a salt.
property: log10 of MIC (log10 of the value in µM)
Reminder: these figures are log10 of reported MIC, in µM before transformation.

Below, 5 compounds whose answers are already recorded.
compound	target_entity	log10 of MIC
COc1cc(O)cc(CCc2ccccc2)c1	Mycobacterium tuberculosis	2.34
Oc1cc(O)cc(CCc2ccccc2)c1 [DIHYDROPINOSYLVIN]	Mycobacterium tuberculosis	2.07
COc1cc(OC)c(O)c([C@@H]2Cc3ccccc3O2)c1	Mycobacterium tuberculosis	2.57
COc1cc(CCc2ccccc2O)cc(O)c1C	Mycobacterium tuberculosis	2.29
COc1cc(CCc2ccccc2O)cc(OC)c1	Mycobacterium tuberculosis	2.29

Fill blank: measured log10 of MIC of the compound COc1c(C)c(O)cc2c1Oc1ccccc1C(O)C2 (stereo not given) [BAUHINOXEPIN G] is ____.
1.96

Fill blank: measured log10 of MIC of the compound NC[C@H]1O[C@H](O[C@H]2[C@H](O)[C@@H](O[C@H]3O[C@H](CO)[C@@H](O)[C@H](N)[C@H]3O)[C@H](N)C[C@@H]2N)[C@H](O)[C@@H](O)[C@@H]1O [KANAMYCIN SULFATE] is ____.
0.54

Fill blank: measured log10 of MIC of the compound COC1=C(C)C(=O)C2=C(CCc3cc(O)ccc3O2)C1=O [BAUHINOXEPIN I] is ____.
2.24

Fill blank: measured log10 of MIC of the compound NNC(=O)c1ccncc1 is ____.
-0.54

These entries and their values trace back to ChEMBL document CHEMBL1139892.
